Provenance of the data: PubChem BioAssay AID573

assay: growth inhibitors of E. coli tolC mutant, primary screen, strain BW25113 ΔtolC::kan, 384-well (AID 573); settings: OD615, screened at 10 µM (by protocol);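 further: growth measured after 20 h incubation at 37 °C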
About 1,400 (2.2%) of roughly 65,000 compounds were called active.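 How the source made its calls: active means growth inhibition at or above a cutoff equal to the mean over every tested compound plus 3 SD (cut at about 60% in these data); inactive means the rest.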 Only a selection was taken, and actives are over-represented in it overall.
Hi there, use one of these labels in your reply, thanks! Yes for active, No for inactive

Worked cases, answers included:
// return assay outcome for `C=C(C)COc1ccc(-c2n[nH]c(C)c2-c2ccccc2OC)c(O)c1`
Yes

// return assay outcome for `C=C(C)COc1ccc(-c2n[nH]c(C)c2-c2ccccc2)c(O)c1`
Yes

// return assay outcome for `COc1ccc(Nc2oc(-c3ccccc3Cl)nc2C#N)cc1`
No

New cases:
// return assay outcome for `CCOC(=O)C1=C(C)NC(C)=C(C(=O)OCC)C1C1=COCCO1`
No

// return assay outcome for `C=CCNC(=O)CCCOc1cccc(C)c1`
No

// return assay outcome for `c1ccc2[nH]c(NCCN3CCOCC3)nc2c1`
No

// return assay outcome for `N#Cc1nc(-c2ccc(OCc3ccccc3)cc2)oc1NCCCN1CCOCC1`
Yes

// return assay outcome for `COc1ccc(-c2n[nH]c(C)c2-c2ccc(OC)c(OC)c2)c(O)c1`
No

// return assay outcome for `Cc1oc(C)c(C(=O)NCCCC(=O)O)c1C(=O)NCCCC(=O)O`
No

// return assay outcome for `CC(C)Cc1cc(C(=O)NCCc2ccccc2)no1`
No

// return assay outcome for CCCCC(=O)N(c1ccc(OC)cc1)C1C=CS(=O)(=O)C1 (stereo unspecified)
No
